Read-out: matrix metalloproteinase-3 (MMP3), MMP3 (gene 4314)
assayProcedure: LTEA_HepaRG_MMP3: Life Technologies and Expression Analysis (LTEA) Assay for matrix metalloproteinase-3 (MMP3) using HepaRG (AID 2283519)
measurementContext: mRNA level, 48 h; actives raise or lower the signal
Calls of active or inactive are those of the source. Rule for the calls: active = hit-call score of the fitted dose curve at least 0.9, where 1 is the maximum; inactive = score below 0.9.
Valid outcomes are listed here; reply with one: 1 (yes) (active), 0 (no) (inactive)

Enquiry: Test call, this compound: O=S(=O)(O)c1ccc(N=Nc2c(O)ccc3cc(S(=O)(=O)O)ccc23)cc1
Return: 0 (no)

Enquiry: Note, next up: CC(C)c1nnc2ccc(-c3ocnc3-c3cc(F)ccc3F)cn12
Return: 1 (yes)

Enquiry: Note, next up: CCCCN1C(=O)[C@@H]([C@H](O)C2CCCCC2)NC(=O)C12CCN(Cc1ccc(Oc3ccc(C(=O)O)cc3)cc1)CC2
Return: 1 (yes)

Enquiry: Note, next up: O=C(O)c1ccc2c(c1)nc(C(=O)NC1CCN(C3CC3)CC1)n2Cc1cc(-c2ccc(Cl)s2)on1
Return: 0 (no)

Enquiry: Note, next up: CCCCOC(=O)c1ccccc1
Return: 0 (no)

Enquiry: Note, next up: O=C(O)c1cccc(C(=O)O)c1
Return: 0 (no)

Enquiry: Note, next up: CCN(CC)C(=S)SSC(=S)N(CC)CC
Return: 0 (no)

Enquiry: Note, next up: O=C(NO)C1(NS(=O)(=O)c2ccc(Oc3ccc(F)cc3)cc2)CCOCC1
Return: 0 (no)

Enquiry: Note, next up: c1ccc2ncccc2c1
Return: 0 (no)

Enquiry: Note, next up: O=C(O)c1cccc(C[C@@H]2COc3ccc(OCc4nc5cc(F)ccc5s4)cc3[C@@H]2O)c1
Return: 0 (no)

Enquiry: Note, next up: c1ccc(C(O[C@@H]2CCCN(CCc3ccc4c(c3)OCO4)C2)c2ccccc2)cc1
Return: 1 (yes)
